>  <COMPOUND>
C[C@H]1CN(CC=CC(=O)Nc2cc3c(Nc4ccc(F)c(Cl)c4)ncnc3cc2OCC2CC2)CC(=O)O1 [Example 6]

>  <melting point>
173 to 175 °C

$$$$
>  <COMPOUND>
CCOC(=O)CN(C)CC=CC(=O)Nc1cc2c(Nc3cccc(C)c3)ncnc2cc1OC [Example 4]

>  <melting point>
122 to 124 °C

$$$$
>  <COMPOUND>
C=CC(=O)Nc1cc2c(Nc3ccc(F)c(Cl)c3)ncnc2cc1OCCCCN1CC(=O)OC(C)(C)C1 [C]

>  <melting point>
110 to 112 °C

$$$$
>  <COMPOUND>
CN(C)CC=CC(=O)Nc1cc2c(Nc3ccc(F)c(Cl)c3)ncnc2cc1OC[C@H]1CCCO1 [Example 8(10)]

>  <melting point>
110 to 112 °C

$$$$
